assay: Plasma stability, human; type: in vitro ADME; conditions: read-out: Plasma t1/2 Human
Each entry below carries its reported half-life at 1 µM.
reported_endpoint: half-life at 1 µM

{"compound": "CC(C)CC(C(=O)N[C@H](C(=O)Nc1ccc(Cl)c(Cl)c1)C1CCC1)P(=O)(O)O (stereo partly drawn)", "experimental_result": "> 2.5 h"}
{"compound": "CC(=O)c1ccc(NC(=O)[C@@H](NC(=O)C(CC(C)C)P(=O)(O)O)C(C)C)cc1 (stereo partly drawn)", "experimental_result": "> 2.5 h"}
{"compound": "CC(C)C[C@H](C(=O)N[C@H](C(=O)Nc1ccc(-n2ccnc2)cc1)C(C)C)P(=O)(O)O [(R)‐36]", "experimental_result": "> 2.5 h"}
